experiment notes: Cmax in Beagle dog plasma at 10 mg/kg, po
Assay type: ADME, organism-based, Canis lupus familiaris
Parameters: dose 10 mg/kg, route oral
observation type: Cmax (nM)
One number for each entry, in nM.

Entry O=C(Nc1ccc(F)cc1)N1N=C(c2ccncc2)CC1c1ccc(F)cc1 (stereo unspecified) — recorded Cmax = 160

====

experiment notes: Metabolic stability in human microsomes measured per mg protein
Assay type: ADME, Microsome
observation type: microsomal CLint
The number alone won't do; follow it with the unit.

Entry O=C(Nc1ccc(F)cc1)N1N=C(c2ccncc2)CC1c1ccc(F)cc1 (stereo unspecified) — recorded microsomal CLint = 21 µL/min/mg

====

experiment notes: Cmax in Wistar rat plasma at 2 mg/kg, po administered 2 hrs after aminobenzotriazol-treatment
Format: ADME, organism-based
Set-up: dose 2 mg/kg, route oral
observation type: Cmax (nM)
Numbers only, in nM.

Entry O=C(Nc1ccc(F)cc1)N1N=C(c2ccncc2)CC1c1ccc(F)cc1 (stereo unspecified) — recorded Cmax = 150
